Source listed as patent US20230339896A1.

- protocol.description: Metabolic stability in liver microsomes, human (HLM)
- Assay type: in vitro ADME
- assay.setup: human, liver microsomes, pH 7.4, 0.5 mg/mL protein, 1 µM compound, NADPH, read-out: Metabolic Stability T½ (min), HLM
readout: half-life at 1 µM (min)

Answered examples (3):
compound	half-life at 1 µM (min)
COc1cc2c(cc1Nc1ncc(Cl)c(N3CC(C)(CC(=O)O)c4ccc(F)cc43)n1)CN(C)CC2 (stereo not drawn) [Compound 10, reference compound]	51
COc1cc2c(cc1Nc1ncc(Cl)c(N3CC(C)(CC(=O)O)c4ccccc43)n1)CN(C)CC2 (single isomer, unassigned) [Example 2]	90.8
COc1cc2c(cc1Nc1ncc(Cl)c(N3CC(CC(=O)O)c4ccccc43)n1)CN(C)CC2 (stereo not drawn) [Compound 8, reference compound]	145

[1] CN1CCc2cc(F)c(Nc3ncc(Cl)c(N4CC(C)(CC(=O)O)c5ccccc54)n3)cc2C1 (stereo not drawn) [Example 4]
[2] COc1cc2c(cc1Nc1ncc(Cl)c(N3CC(C)(CC(=O)O)c4ccccc43)n1)CN(C)CC2 (stereo not drawn) [Example 1]
[3] COc1cc2c(cc1Nc1ncc(Cl)c(N3CC(C(=O)O)c4ccccc43)n1)CN(C)CC2 (stereo not drawn) [Compound 7, reference compound]
Rank descending by half-life at 1 µM. List labels; respect the requested ordering. 3, 1, 2
